experiment: xn = mol fraction of the nth substance listed; settings: 293.2 K; 100 kPa; Liquid; Taylor dispersion method; x1 = 0
reported-property: binary diffusion coefficient (m2/s)
State just the number; it will be interpreted in m2/s.

O=C[C@@H](O)[C@H](O)[C@H](O)CO [D-(-)-arabinose] + O: 6.82e-10
O=C[C@H](O)[C@@H](O)[C@H](O)[C@H](O)CO [D-glucose] + O: 6.05e-10
O=C[C@H](O)[C@@H](O)[C@H](O)CO [D-xylose] + O: 6.65e-10
O=C[C@H](O)[C@@H](O)[C@@H](O)[C@H](O)CO [(+)-galactose] + O: 6.25e-10
O=C[C@@H](O)[C@@H](O)[C@H](O)[C@H](O)CO [D-mannose] + O: 6.2e-10

(Q) Look up binary diffusion coefficient for this molecule: OC[C@H]1O[C@@](CO)(O[C@H]2O[C@H](CO)[C@@H](O)[C@H](O)[C@H]2O)[C@@H](O)[C@@H]1O [D-sucrose] + O
(A) 4.87e-10
